Test system: Escherichia coli
assay notes: Antimicrobial activity against Escherichia coli assessed as zone of inhibition at 12.5 ug/ml after 18 to 24 hr by two-fold dilution technique relative to control
Assay type: functional
measurement kind: inhibition at 12.5 µg/mL (%)
The figure you give is taken to be in %; do not add the unit.

Reference set (3 entries):
Oc1ccc(/C=C/c2nc3cc(Cl)ccc3[nH]2)cc1
79.9
O=[N+]([O-])c1ccc2[nH]c(/C=C/c3ccc(O)cc3)nc2c1
76.9
O=[N+]([O-])c1ccc2[nH]c(/C=C/c3ccc(Cl)cc3)nc2c1
80.7

Ask: Tell me the measured inhibition at 12.5 µg/mL of "COc1ccc(/C=C/c2nc3cc(Cl)ccc3[nH]2)cc1OC" , please.
Result: 80.5

Ask: Tell me the measured inhibition at 12.5 µg/mL of "Clc1ccc2[nH]c(/C=C/c3ccccc3)nc2c1" , please.
Result: 77.7

Ask: Tell me the measured inhibition at 12.5 µg/mL of "O=[N+]([O-])c1ccc(/C=C/c2nc3cc([N+](=O)[O-])ccc3[nH]2)cc1" , please.
Result: 77.1

Ask: Tell me the measured inhibition at 12.5 µg/mL of "COc1ccc(/C=C/c2nc3cc([N+](=O)[O-])ccc3[nH]2)c(OC)c1OC" , please.
Result: 76.6

Ask: Tell me the measured inhibition at 12.5 µg/mL of "COc1ccc(/C=C/c2nc3cc(Cl)ccc3[nH]2)c(OC)c1OC" , please.
Result: 80.5

###

System: Staphylococcus aureus
assay notes: Antimicrobial activity against Staphylococcus aureus assessed as zone of inhibition at 12.5 ug/ml after 18 to 24 hr by two-fold dilution technique relative to control
Format: functional
Below: a set of entries, each annotated with reported inhibition at 12.5 µg/mL.
The figure you give is taken to be in %; do not add the unit.

COc1ccc(/C=C/c2nc3cc(Cl)ccc3[nH]2)cc1OC
75.2

Ask: Tell me the measured inhibition at 12.5 µg/mL of "O=[N+]([O-])c1ccc2[nH]c(/C=C/c3ccc(O)cc3)nc2c1" , please.
Result: 72.1

Ask: Tell me the measured inhibition at 12.5 µg/mL of "Clc1ccc2[nH]c(/C=C/c3ccccc3)nc2c1" , please.
Result: 76.2

Ask: Tell me the measured inhibition at 12.5 µg/mL of "Oc1ccc(/C=C/c2nc3cc(Cl)ccc3[nH]2)cc1" , please.
Result: 70.8

Ask: Tell me the measured inhibition at 12.5 µg/mL of "COc1ccc(/C=C/c2nc3cc(Cl)ccc3[nH]2)c(OC)c1OC" , please.
Result: 72.7

Ask: Tell me the measured inhibition at 12.5 µg/mL of "COc1ccc(/C=C/c2nc3cc([N+](=O)[O-])ccc3[nH]2)c(OC)c1OC" , please.
Result: 75.2

Ask: Tell me the measured inhibition at 12.5 µg/mL of "O=[N+]([O-])c1ccc2[nH]c(/C=C/c3ccc(Cl)cc3)nc2c1" , please.
Result: 82.1

Ask: Tell me the measured inhibition at 12.5 µg/mL of "O=[N+]([O-])c1ccc(/C=C/c2nc3cc([N+](=O)[O-])ccc3[nH]2)cc1" , please.
Result: 69.7
